The origin of these recorded values is patent US20100105111A1.

System: nitrile hydratase derived from Rhodococcus opacus 71D
Assay: Substrate specificity of the purified enzyme from Rhodococcus opacus 71D (aminonitrile to amino acid amide, HPLC)
Conditions: enzymatic properties; activity for 2-aminobutyronitrile is 100
Property: Relative activity for each substrate
Write no unit; give the number alone.

Use these answered entries as a reference point.
| Molecule | Relative activity for each substrate |
| --- | --- |
| CC(C)C[C@H](N)C#N | 11.8 |
| CC(C)(C)C(N)C#N (stereo not shown) | 1.80 |
| CC(C)[C@H](N)C#N | 15.1 |
| CCC(N)C#N (stereo not shown) | 100 |
| N#C[C@@H](N)Cc1ccccc1 | 42.9 |

Prompt line: Item under review: N#CC(N)c1ccccc1 (stereo not shown) . Reported Relative activity for each substrate?
Response line: 177

Prompt line: Could you tell me which Relative activity for each substrate is on file for CC(N)C#N (stereo not shown) ?
Response line: 77

* * *

Test system: nitrile hydratase derived from Rhodococcus opacus 71D
Assay: Substrate specificity of the purified enzyme from Rhodococcus opacus 71D (aminonitrile to amino acid amide, HPLC)
Conditions: substrate 20 mM; 30° C., 0.1 M potassium phosphate buffer pH 7.0; activity for 2-aminobutyronitrile = 100
Each record here notes measured Relative activity.
Could you keep your reply to the number by itself?

| Molecule | Measured on | Relative activity |
| --- | --- | --- |
| CC(C)(C)C(N)C#N (centres unmarked) | nitrile hydratase derived from Rhodococcus opacus 71D | 1.8 |
| N#CC(N)c1ccccc1 (centres unmarked) | nitrile hydratase derived from Rhodococcus opacus 71D | 177 |
| CC(C)[C@H](N)C#N | nitrile hydratase derived from Rhodococcus opacus 71D | 15.1 |
| CCC(N)C#N (centres unmarked) | nitrile hydratase derived from Rhodococcus opacus 71D | 100 |

Prompt line: For the molecule CC(N)C#N (centres unmarked) , what Relative activity is on record?
Response line: 77.0
